Target: T1, Extracellular domain (ECD) of the canine IL-4 receptor alpha-V5 epitope-AviTag-His Tag (canine)
T1 construct: monomeric form isolated by size exclusion; also called canine IL-4RA-V5-Avi-His; canine IL-4RA
T1 chain: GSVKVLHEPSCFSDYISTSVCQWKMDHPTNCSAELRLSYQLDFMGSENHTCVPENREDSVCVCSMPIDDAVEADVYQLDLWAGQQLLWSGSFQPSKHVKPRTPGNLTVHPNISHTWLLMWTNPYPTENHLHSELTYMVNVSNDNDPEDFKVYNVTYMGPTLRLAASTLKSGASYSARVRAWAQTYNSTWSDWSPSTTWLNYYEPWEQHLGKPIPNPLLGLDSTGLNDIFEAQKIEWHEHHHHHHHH
Assay: SPR, Fab-SASA captured on BSA;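 note: biacore T200 SPR, Fab-SASA variants from E. coli conditioned medium captured on BSA-coated CM5 chip, canine IL-4RA injected 120 s then 420 s dissociation, 1:1 model fit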
Rule for this label: Criterion met means kon is less than 70000 M⁻¹ s⁻¹; Criterion not met means kon is at least 70000 M⁻¹ s⁻¹.

# Binder, Classification
data = [
    ("TB640_005 Fab-SASA VL-G96P (Fab, V domains shown, not shown: SASA tag then His-tag) VH: EVQLVESGGDLVKPGGSLRLSCVASGFTFRDYAMTWVRQAPGKGLQWVSLISGSGGKTYYADAVKGRFTISRDNAKNTLYLQMNSLRAEDTAVYYCAVDRLTKTIRPQYYGLWVWGQGTLVTVSS VL: DIVMTQTPLSLSVSPGETASISCRSSQSLLYSIGYNYLDWYLQKPGQSPQGLIYLGSKRASGVPDRFSGSGSGTDFTLRISRVEANDTGVYYCMQPLQSPLTFGQGTKLEIKR", "Criterion not met"),
    ("TB640_005 Fab-SASA VH-L50M (Fab, V domains shown, not shown: SASA tag then His-tag) VH: EVQLVESGGDLVKPGGSLRLSCVASGFTFRDYAMTWVRQAPGKGLQWVSMISGSGGKTYYADAVKGRFTISRDNAKNTLYLQMNSLRAEDTAVYYCAVDRLTKTIRPQYYGLWVWGQGTLVTVSS VL: DIVMTQTPLSLSVSPGETASISCRSSQSLLYSIGYNYLDWYLQKPGQSPQGLIYLGSKRASGVPDRFSGSGSGTDFTLRISRVEANDTGVYYCMQGLQSPLTFGQGTKLEIKR", "Criterion not met"),
    ("TB640_005 Fab-SASA VH-Y110R (Fab, V domains shown, not shown: SASA tag then His-tag) VH: EVQLVESGGDLVKPGGSLRLSCVASGFTFRDYAMTWVRQAPGKGLQWVSLISGSGGKTYYADAVKGRFTISRDNAKNTLYLQMNSLRAEDTAVYYCAVDRLTKTIRPQYRGLWVWGQGTLVTVSS VL: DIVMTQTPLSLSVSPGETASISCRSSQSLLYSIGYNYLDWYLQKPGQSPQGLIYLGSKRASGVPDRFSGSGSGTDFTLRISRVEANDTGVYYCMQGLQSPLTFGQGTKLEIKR", "Criterion not met"),
    ("TB640_005 Fab-SASA VH-S52N (Fab, V domains shown, not shown: SASA tag then His-tag) VH: EVQLVESGGDLVKPGGSLRLSCVASGFTFRDYAMTWVRQAPGKGLQWVSLINGSGGKTYYADAVKGRFTISRDNAKNTLYLQMNSLRAEDTAVYYCAVDRLTKTIRPQYYGLWVWGQGTLVTVSS VL: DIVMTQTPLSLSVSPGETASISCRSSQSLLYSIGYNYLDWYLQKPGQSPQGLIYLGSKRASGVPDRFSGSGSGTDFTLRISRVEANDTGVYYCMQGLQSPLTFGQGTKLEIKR", "Criterion met"),
    ("TB640_005 Fab-SASA VL-L30T (Fab, V domains shown, not shown: SASA tag then His-tag) VH: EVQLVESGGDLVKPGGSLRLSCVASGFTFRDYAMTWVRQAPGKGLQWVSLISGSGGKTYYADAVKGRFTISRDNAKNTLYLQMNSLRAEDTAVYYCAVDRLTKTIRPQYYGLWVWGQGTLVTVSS VL: DIVMTQTPLSLSVSPGETASISCRSSQSLTYSIGYNYLDWYLQKPGQSPQGLIYLGSKRASGVPDRFSGSGSGTDFTLRISRVEANDTGVYYCMQGLQSPLTFGQGTKLEIKR", "Criterion met"),
    ("TB640_005 Fab-SASA VL-T102S (Fab, V domains shown, not shown: SASA tag then His-tag) VH: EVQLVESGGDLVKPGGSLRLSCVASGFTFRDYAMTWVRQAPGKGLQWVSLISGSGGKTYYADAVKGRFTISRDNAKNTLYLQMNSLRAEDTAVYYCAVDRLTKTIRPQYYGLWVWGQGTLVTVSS VL: DIVMTQTPLSLSVSPGETASISCRSSQSLLYSIGYNYLDWYLQKPGQSPQGLIYLGSKRASGVPDRFSGSGSGTDFTLRISRVEANDTGVYYCMQGLQSPLSFGQGTKLEIKR", "Criterion not met"),
]
